Here the recorded inhibition is given for each entry.
biological target: Glycogen synthase kinase-3 alpha (Homo sapiens); conditions: at 1 µM;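 note: each figure is a mean percent inhibition of GSK3A activity, from a screen of the GSK published kinase inhibitor set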
# value in %; strip the unit string

CC1=C(C(=O)Nc2ccc3[nH]nc(C)c3c2)C(c2ccc(C(F)(F)F)cc2)CC(=O)N1 (stereo not drawn): 10.8
O=C(O[C@H]1CN[C@H](C#Cc2cc3ncnc(Nc4ccc5c(ccn5Cc5cc(F)ccc5F)c4)c3s2)C1)N1CCOCC1: 6.08
Fc1cccc(COc2ccc(Nc3ncncc3C#Cc3ccccc3)cc2Cl)c1: 4.91
CS(=O)(=O)Nc1ccc(-c2cc(-c3ccccc3)cc(C(N)=O)c2N)cc1: 3.56
O=C1Nc2ccccc2/C1=C1\CCc2cc(O)ccc21: 10.5

// map CS(=O)(=O)Nc1ccc(-c2ccc3c(NC(=O)C4CC4)n[nH]c3c2)cc1 to recorded inhibition (system: Glycogen synthase kinase-3 alpha (Homo sapiens)) 7.33

Missing value: inhibition, Glycogen synthase kinase-3 alpha (Homo sapiens), entry CC1(C)CC(n2cnc(-c3ccc(F)cc3)c2-c2ccnc(N)n2)CC(C)(C)N1 . Fill in? 5.81

Item: COC(=O)Nc1nc2ccc(Oc3ccc(NC(=O)Nc4cc(C(F)(F)F)ccc4F)cc3)cc2s1 Test system: Glycogen synthase kinase-3 alpha (Homo sapiens) Read-out: inhibition Value: ? 4.01

---

test system: Platelet-derived growth factor receptor alpha (Homo sapiens), P16234 [V561D]; details: at 1 µM
Sequence (P16234 whole entry V561D): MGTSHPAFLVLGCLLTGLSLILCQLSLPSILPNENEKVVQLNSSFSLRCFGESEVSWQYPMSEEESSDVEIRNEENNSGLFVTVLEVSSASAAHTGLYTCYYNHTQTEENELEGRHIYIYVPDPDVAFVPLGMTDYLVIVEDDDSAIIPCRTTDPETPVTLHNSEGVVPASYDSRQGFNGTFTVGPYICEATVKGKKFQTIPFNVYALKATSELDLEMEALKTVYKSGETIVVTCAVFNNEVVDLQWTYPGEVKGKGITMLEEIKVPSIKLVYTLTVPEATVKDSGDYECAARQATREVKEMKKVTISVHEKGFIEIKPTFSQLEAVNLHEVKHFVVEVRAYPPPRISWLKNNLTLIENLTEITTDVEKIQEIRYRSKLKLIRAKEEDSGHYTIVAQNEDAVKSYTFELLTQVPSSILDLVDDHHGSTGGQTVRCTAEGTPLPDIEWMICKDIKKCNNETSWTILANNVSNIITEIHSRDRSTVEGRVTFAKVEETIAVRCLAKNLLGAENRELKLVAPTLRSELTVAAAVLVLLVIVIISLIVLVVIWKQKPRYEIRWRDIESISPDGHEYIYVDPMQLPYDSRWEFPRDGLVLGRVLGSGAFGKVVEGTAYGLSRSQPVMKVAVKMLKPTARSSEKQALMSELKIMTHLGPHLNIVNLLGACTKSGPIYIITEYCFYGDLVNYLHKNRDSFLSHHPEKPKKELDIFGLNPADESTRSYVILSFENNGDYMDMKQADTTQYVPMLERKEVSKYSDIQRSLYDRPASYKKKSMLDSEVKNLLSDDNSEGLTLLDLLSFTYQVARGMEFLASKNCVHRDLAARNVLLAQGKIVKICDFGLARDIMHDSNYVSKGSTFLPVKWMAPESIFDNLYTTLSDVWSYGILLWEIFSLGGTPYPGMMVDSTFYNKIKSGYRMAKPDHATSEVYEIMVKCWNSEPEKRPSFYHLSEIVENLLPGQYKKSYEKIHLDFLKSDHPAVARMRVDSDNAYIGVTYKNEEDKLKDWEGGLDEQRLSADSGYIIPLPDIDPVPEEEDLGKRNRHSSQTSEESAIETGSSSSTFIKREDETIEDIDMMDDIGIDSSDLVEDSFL
Quick list: inhibition per entry.

Solved cases below.
CCN1CCC(C(=O)Nc2n[nH]c3nnc(-c4cccc(F)c4F)cc23)CC1: 0.89%
CN(C)CCNC(=O)Nc1ccc(N(C)c2ccnc(Nc3ccc(CS(C)(=O)=O)cc3)n2)cc1: 67.4%
COc1cc(Nc2ncc(-c3ccccc3)o2)cc(OC)c1: 64.3%
COc1ccc2ncn(-c3cc(O[C@H](C)c4ccccc4C(F)(F)F)c(C(N)=O)s3)c2c1: 26.1%
COc1ccc(Nc2ncc(-c3ccccc3)o2)cc1OC: 77%
COc1cc(N2CCN(C(C)C)CC2)ccc1Nc1nc(Nc2cccc(F)c2C(=O)O)c2cc[nH]c2n1: 5.37%

Item: Cc1ccc(-c2cc3c(NC(=O)C4CC4)ncnc3o2)cc1 Test system: Platelet-derived growth factor receptor alpha (Homo sapiens), P16234 [V561D] Read-out: inhibition Value: ? 31.9%

Please state recorded inhibition (tested on Platelet-derived growth factor receptor alpha (Homo sapiens), P16234 [V561D]) of OCCCNc1nccc(-c2c(-c3ccc(F)cc3)nn3cc(C(F)(F)F)ccc23)n1 6.06%

Request - read-out inhibition | tested on Platelet-derived growth factor receptor alpha (Homo sapiens), P16234 [V561D] | compound COc1ccc(-c2nn3ncccc3c2-c2ccnc(Nc3ccc(F)c(F)c3)n2)cc1 11.3%

Quick check: inhibition on Platelet-derived growth factor receptor alpha (Homo sapiens), P16234 [V561D], item Fc1ccc(Nc2nccc(-c3c(-c4ccc(C(F)(F)F)cc4)nn4ncccc34)n2)cc1F ? 2.39%

Form entry - test system: Platelet-derived growth factor receptor alpha (Homo sapiens), P16234 [V561D]; read-out: inhibition; compound: CNC(=O)c1cncc(/C=C/c2ccccc2C)c1 17%

# query: inhibition | item O=C(O[C@H]1CN[C@H](C#Cc2cc3ncnc(Nc4ccc(OCc5cccc(F)c5)c(Cl)c4)c3s2)C1)N1CCOCC1 | system: Platelet-derived growth factor receptor alpha (Homo sapiens), P16234 [V561D] 3.92%

Form field - read-out: inhibition; system: Platelet-derived growth factor receptor alpha (Homo sapiens), P16234 [V561D]; submitted item: COc1c(C(N)=O)cc(-c2ccc(Cl)cc2)cc1-c1ccc(S(N)(=O)=O)cc1 5.56%

Recorded inhibition for CN1CCC(n2cnc(-c3ccc(F)cc3)c2-c2ccnc(NCCO)n2)CC1 with Platelet-derived growth factor receptor alpha (Homo sapiens), P16234 [V561D], please? 3.97%

GET /values?readout=inhibition&system=Platelet-derived growth factor receptor alpha (Homo sapiens), P16234 [V561D]&item= COc1cccc(-n2ncc3c(N/N=C/c4ccc(C(=O)NCCN(C)C)cc4)ncnc32)c1 85.5%

GET /values?readout=inhibition&system=Platelet-derived growth factor receptor alpha (Homo sapiens), P16234 [V561D]&item= COc1cc2c(cc1Nc1nc(Nc3cccc(F)c3C(N)=O)c3cc[nH]c3n1)N(C(=O)CN1CCN(C(C)C)CC1)CC2 11.6%

What reported inhibition corresponds to CS(=O)(=O)CCNCc1ccoc1-c1ccc2ncnc(Nc3ccc(OCc4ccccc4)cc3)c2c1 on Platelet-derived growth factor receptor alpha (Homo sapiens), P16234 [V561D]? 7.53%

Under Platelet-derived growth factor receptor alpha (Homo sapiens), P16234 [V561D]: inhibition value of CC1(C)CC(n2cnc(-c3ccc(F)cc3)c2-c2ccnc(N)n2)CC(C)(C)N1 ? 3.08%

Recall the recorded inhibition for CS(=O)(=O)Nc1ccc(-c2cc(-c3ccccc3)cc(C(N)=O)c2N)cc1 with Platelet-derived growth factor receptor alpha (Homo sapiens), P16234 [V561D] and state it. 5.7%

# get_value(readout= inhibition, system= Platelet-derived growth factor receptor alpha (Homo sapiens), P16234 [V561D]) for CS(=O)(=O)Nc1ccc(-c2ccc3c(NC(=O)C4CC4)n[nH]c3c2)cc1 26.5%

For the record Cc1cc(O)cc(C)c1/C=C/c1cncc(C(N)=O)c1 , what value of inhibition is listed for Platelet-derived growth factor receptor alpha (Homo sapiens), P16234 [V561D]? 55.5%

Param readout = inhibition; param system = Platelet-derived growth factor receptor alpha (Homo sapiens), P16234 [V561D]; param query = COc1ccccc1-c1cc(/C=C2\C(=O)Nc3ncc(Br)cc32)cc(Br)c1O ; response: value 15.2%

Form entry - test system: Platelet-derived growth factor receptor alpha (Homo sapiens), P16234 [V561D]; read-out: inhibition; compound: CNC(=O)c1sc(-n2cnc3cc(OC)c(OC)cc32)cc1OCc1ccccc1C(F)(F)F 44.8%

Any idea what inhibition came out for COc1cccc(Nc2nccc(-c3cnn4ncccc34)n2)c1 on Platelet-derived growth factor receptor alpha (Homo sapiens), P16234 [V561D]? 64.1%
